The reported numbers originate from patent US10889573B2.

# Test system: Haemonchus contortus
# Protocol Conditions: 120 h, read-out: activity (larval mortality)
Catalogue of mortality at 20 ppm values
Property Measured: mortality at 20 ppm (%)

{"columns": ["Compound", "Property Measured", "Unit Symbol", "Recorded Value"],
 "data": [
  ["O=C(N[C@H]1CCOc2ccccc21)c1cnc2c(-c3cccc(Cl)c3Cl)cccc2c1N1CCC(O)C1 (mixture of isomers)", "mortality at 20 ppm", "%", 100],
  ["CNc1c(C(=O)N[C@H]2CCOc3ccccc32)cnc2c(-c3cc(Cl)cc(Cl)c3)cccc12", "mortality at 20 ppm", "%", 100],
  ["O=C(N[C@H]1CCOc2ccccc21)c1cnc2c(-c3cccc4c3OCC4)cccc2c1N1CCOCC1", "mortality at 20 ppm", "%", 90]
]}

----------
# Experiment Notes: log P by HPLC on reversed phase columns (Method L0)
# Protocol Conditions: HPLC on reversed phase columns, Method L0

{"columns": ["Compound", "logP (Method L0)[a]"],
 "data": [
  ["O=C(N[C@H]1CCOc2ccccc21)c1cnc2c(-c3cc(Cl)cc(Cl)c3)cccc2c1Nc1ccncc1 [Example 136]", 2.1],
  ["CCC(CO)Nc1c(C(=O)NC2CCc3ccccc32)cnc2c(-c3cc(Cl)cc(Cl)c3)cccc12 (stereo not shown) [Example 99-2]", 2.1],
  ["O=C(N[C@H]1CCc2ccccc21)c1cnc2c(-c3cc(Cl)cc(Cl)c3)cccc2c1NCCn1cccn1 [Example 125]", 2.1],
  ["CN(C)c1c(C(=O)N[C@H]2CCOc3cc(F)ccc32)cnc2c(-c3cc(Cl)cc(Cl)c3)cccc12 [Example 152]", 3],
  ["CN(C)c1c(C(=O)N[C@H]2CCOc3ccccc32)cnc2c(-c3cc(Cl)cc(Cl)c3)cccc12 [Example 8]", 2.53],
  ["C[C@H](Nc1c(C(=O)N[C@H]2CCc3ccccc32)cnc2c(-c3cc(Cl)cc(Cl)c3)cccc12)C(N)=O [Example 127]", 1.9],
  ["O=C(N[C@H]1CCc2ccccc21)c1cnc2c(-c3cc(Cl)cc(Cl)c3)cccc2c1NCc1ccccn1 [Example 99-1]", 2.2]
]}

----------
# Tested on: Dirofilaria immitis microfilariae
# Experiment Notes: In vitro assay 3: Dirofilaria immitis microfilariae (DIROIM L1), motility
# Protocol Conditions: 72 h, read-out: EC50 (reduction of motility), 72 h incubation

{"columns": ["Compound", "EC50"],
 "data": [
  ["CN(C)c1c(C(=O)NC2CSc3ccccc32)cnc2c(-c3cc(Cl)cc(Cl)c3)cccc12 (stereo not drawn)", "< 0.1 µg/mL"],
  ["O=C(N[C@H]1CCc2ccccc21)c1cnc2c(-c3cc(Cl)cc(Cl)c3)cccc2c1OCC1CCCC1", "< 1 µg/mL"],
  ["CN(C)c1c(C(=O)N[C@H]2CCOc3ccccc32)cnc2c(-c3cccc(Cl)c3)c(F)ccc12", "< 0.1 µg/mL"],
  ["CCOC(=O)CN(C)c1c(C(=O)N[C@H]2CCOc3ccccc32)cnc2c(-c3cc(Cl)cc(Cl)c3)cccc12", "< 1 µg/mL"],
  ["Cc1cc(C)cc(-c2cccc3c(Cl)c(C(=O)N[C@H]4CCCc5ccccc54)cnc23)c1", "< 0.1 µg/mL"],
  ["Cc1ccc(F)c(-c2cccc3c(N(C)C)c(C(=O)N[C@H]4CCOc5ccccc54)cnc23)c1", "< 0.1 µg/mL"],
  ["O=C(N[C@H]1CCOc2ccccc21)c1cnc2c(-c3cccc(Cl)c3F)cccc2c1N1CCOCC1", "< 0.1 µg/mL"],
  ["O=C(N[C@H]1CCOc2ccccc21)c1cnc2c(-c3cc(Cl)cc(Cl)c3)cccc2c1-c1ccncc1", "< 0.1 µg/mL"],
  ["CN(C)c1c(C(=O)N[C@H]2CCOc3ccccc32)cnc2c(-c3ncccc3F)cccc12", "< 1 µg/mL"],
  ["O=C(N[C@H]1CCOc2ccccc21)c1cnc2c(-c3cccc(F)c3Cl)cccc2c1N1CCOCC1", "< 0.1 µg/mL"],
  ["CCOc1c(C(=O)N[C@H]2CCOc3ccccc32)cnc2c(-c3cc(Cl)cc(Cl)c3)cccc12", "< 0.1 µg/mL"],
  ["O=C(N[C@H]1CCc2ccccc21)c1cnc2c(-c3cccc(Cl)c3)cccc2c1Cl", "< 0.1 µg/mL"],
  ["O=C(N[C@H]1CCOc2ccccc21)c1cnc2c(-c3cc(Cl)cc(Cl)c3)cccc2c1-n1ccnn1", "< 0.1 µg/mL"],
  ["CN(C)c1c(C(=O)NC2CCOc3c(Br)cccc32)cnc2c(-c3cc(Cl)cc(Cl)c3)cccc12 (stereo not drawn)", "< 0.1 µg/mL"],
  ["CC(C)c1c(C(=O)N[C@H]2CCOc3ccccc32)cnc2c(-c3cc(Cl)cc(Cl)c3)cccc12", "< 0.1 µg/mL"]
]}
